Sourced from PubChem BioAssay

# methodDescription: reduction of polyQ htt aggregates in cells – imaging, exon1htt(103Q)mCFP cells, high-content imaging, primary screen (AID 483);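 note: compound exposure lasted 3 days before fixation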
# testConditions: exon1htt(103Q)mCFP cell line, aggregate imaging, at 2 µM; hits give high values
Calls of active or inactive are those of the source.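 Rule for the calls: active = visual image review flags a hit and inhibition of aggregation exceeds 20%; inconclusive = visual hit but inhibition at or below 20%; inactive = no hit on visual image review.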
assayMetric: inhibition of aggregation

Here's what some known entries look like.
{"molecule": "CCc1nnc2c3cnn(-c4ccccc4)c3ncn12", "assayMetric": "inhibition of aggregation", "reportedValue": "-11.8% (inactive)"}
{"molecule": "CS(=O)(=O)NCCSCc1c(F)cccc1Cl", "assayMetric": "inhibition of aggregation", "reportedValue": "0% (inactive)"}
{"molecule": "CCCNC(=O)NC(C(=O)OC)C12CC3CC(CC(C3)C1)C2 (centres undefined)", "assayMetric": "inhibition of aggregation", "reportedValue": "19.6% (inactive)"}
{"molecule": "Nc1nc2n(n1)C(c1c(F)cccc1Cl)CC(c1ccc(F)cc1)N2 (centres undefined)", "assayMetric": "inhibition of aggregation", "reportedValue": "-46.8% (inactive)"}

I have 2 molecules here; please give me inhibition of aggregation for each one.
1. Cc1cccc(NC(=O)Nc2cccc(C#N)c2)n1
2. CCCN1C2CCCC1CC(NC(=O)Nc1cccc(C(C)=O)c1)C2 (centres undefined)

A:
1: 10.2% (inactive); 2: -17% (inactive)
